- Experiment Summary: Half life in Sprague-Dawley rat at 10 mg/kg, iv by LC-MS/MS analysis
- Format: ADME, organism-based
- Particulars: in vivo
Assay Readout: half-life (min)
Numbers only, in min.

Specify half-life for COc1cc2c(cc1OC)[C@H](CCc1c[nH]c3cc(C)ccc13)N(C=O)CC2 and stop.
36

====

Would you kindly list inhibition for each of these compounds?
- Assay System: 3',5'-cyclic-AMP phosphodiesterase 4D (Homo sapiens)
- Experiment Summary: Inhibition of recombinant human PDE4D catalytic domain at 1 uM using [3H]cAMP as substrate measured after 30 mins by scintillation proximity assay relative to control

Solved entries:
Compound: COc1cc2c(cc1OC)C(CCc1c[nH]c3ccccc13)N(C(=O)c1ccncc1)CC2 (racemic)
Observed Measurement: 30.7%
//
Compound: COCCN1CCc2cc(OC)c(OC)cc2C1CCc1c[nH]c2ccccc12 (racemic)
Observed Measurement: 19.2%
//
Compound: COc1cc2c(cc1OC1CCCC1)[C@H](CCc1c[nH]c3cc(C)ccc13)N(C=O)CC2
Observed Measurement: 24%

Provide the reported inhibition of each entry below, same order.
1. COc1cc2c(cc1OC)C(CCc1c[nH]c3ccccc13)N(CC(F)(F)F)CC2 (racemic)
2. COC(=O)CN1CCc2cc(OC)c(OC)cc2C1CCc1c[nH]c2ccccc12 (racemic)
3. COc1cc2c(cc1OC)C(CCc1c[nH]c3ccccc13)N(C(=O)C1CCOCC1)CC2 (racemic)

["19.5%", "39.1%", "16.4%"]
